# ASSAYED SYSTEM: human TAS1R2-WT/TAS1R3-A735T (Homo sapiens, UniProt Q7RTX0+Q8TE23, A735T)
# Construct: expressed in transfected cells; host or cells: HEK293T stably expressing Gα16gust44
# Sequence (Q8TE23 20-839): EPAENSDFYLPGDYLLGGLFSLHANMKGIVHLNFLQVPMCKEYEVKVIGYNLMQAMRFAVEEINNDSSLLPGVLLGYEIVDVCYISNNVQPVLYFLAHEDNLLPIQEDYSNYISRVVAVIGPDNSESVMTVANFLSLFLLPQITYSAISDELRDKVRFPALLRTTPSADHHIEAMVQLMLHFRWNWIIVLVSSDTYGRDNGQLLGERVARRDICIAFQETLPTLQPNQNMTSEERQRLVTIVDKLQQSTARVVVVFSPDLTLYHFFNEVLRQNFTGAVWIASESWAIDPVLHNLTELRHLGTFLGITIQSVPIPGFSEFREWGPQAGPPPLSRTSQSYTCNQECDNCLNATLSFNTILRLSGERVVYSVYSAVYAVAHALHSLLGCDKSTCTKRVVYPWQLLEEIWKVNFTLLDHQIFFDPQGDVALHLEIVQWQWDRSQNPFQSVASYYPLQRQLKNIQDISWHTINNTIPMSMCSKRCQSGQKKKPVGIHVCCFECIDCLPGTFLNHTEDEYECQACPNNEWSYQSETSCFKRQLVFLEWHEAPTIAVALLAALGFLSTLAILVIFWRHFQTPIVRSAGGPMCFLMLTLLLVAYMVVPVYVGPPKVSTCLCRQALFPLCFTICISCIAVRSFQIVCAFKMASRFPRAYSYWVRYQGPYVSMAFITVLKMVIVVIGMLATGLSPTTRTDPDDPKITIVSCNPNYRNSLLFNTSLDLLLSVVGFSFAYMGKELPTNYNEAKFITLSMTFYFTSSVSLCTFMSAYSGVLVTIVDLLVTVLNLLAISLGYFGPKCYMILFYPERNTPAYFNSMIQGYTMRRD
# Sequence (Q7RTX0 21-852 A735T): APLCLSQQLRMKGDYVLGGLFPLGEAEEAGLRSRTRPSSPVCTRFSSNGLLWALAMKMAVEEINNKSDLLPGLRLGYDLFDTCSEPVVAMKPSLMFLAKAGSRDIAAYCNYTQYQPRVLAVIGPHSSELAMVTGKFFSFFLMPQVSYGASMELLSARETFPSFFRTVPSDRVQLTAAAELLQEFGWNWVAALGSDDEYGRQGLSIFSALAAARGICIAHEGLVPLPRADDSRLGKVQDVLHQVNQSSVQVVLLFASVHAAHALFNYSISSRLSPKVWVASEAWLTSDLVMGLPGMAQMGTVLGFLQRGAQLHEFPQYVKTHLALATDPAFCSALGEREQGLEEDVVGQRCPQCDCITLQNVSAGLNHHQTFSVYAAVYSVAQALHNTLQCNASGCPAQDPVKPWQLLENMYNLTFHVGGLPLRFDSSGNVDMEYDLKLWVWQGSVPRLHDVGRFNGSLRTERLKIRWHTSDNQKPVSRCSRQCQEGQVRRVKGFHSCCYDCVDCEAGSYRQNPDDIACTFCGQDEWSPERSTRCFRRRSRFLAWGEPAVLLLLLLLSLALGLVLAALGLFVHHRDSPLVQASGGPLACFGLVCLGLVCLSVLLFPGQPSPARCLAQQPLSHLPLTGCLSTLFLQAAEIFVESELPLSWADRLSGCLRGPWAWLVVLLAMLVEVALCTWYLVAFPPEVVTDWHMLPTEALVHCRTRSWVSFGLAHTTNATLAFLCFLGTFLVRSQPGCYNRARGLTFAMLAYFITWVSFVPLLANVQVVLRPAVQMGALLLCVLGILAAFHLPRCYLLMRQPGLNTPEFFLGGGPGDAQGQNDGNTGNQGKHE
# EXPERIMENTAL PROTOCOL: Calcium mobilisation assay, TAS1R2-WT with TAS1R3 variant A735T
# Type: cell-based
# Description: The coding sequences for TAS1R2 and TAS1R3 were commercially synthesised, and the human codon was optimised for expression in human cells. […] The HEK293T cells were kindly provided by Jay P. Slack (Givaudan Flavors Corporation; Cincinnati, OH, USA). […] The Ca^2+ changes were expressed as fractional changes in fluorescent light intensity: ΔF/F = (F − F0)/F0, where F was the fluorescent light intensity at each point, and F0 was the value of emitted fluorescent light prior to stimulus application. […]
TEST READOUT: R1 = Variant EC50/WT EC50

INSERT INTO results (compound, assay_result) VALUES
  ('C=C(C)[C@@H]1CC=C(/C=N/O)CC1', 0.9),
  ('COc1ccc(CCC(=O)c2c(O)cc(O[C@@H]3O[C@H](CO)[C@@H](O)[C@H](O)[C@H]3O[C@@H]3O[C@@H](C)[C@H](O)[C@@H](O)[C@H]3O)cc2O)cc1O [NHDC, neohesperidin dihydrochalcone]', 0.8),
  ('COC(=O)[C@H](Cc1ccccc1)NC(=O)[C@H](CC(=O)O)NCCC(C)(C)C', 0.8);

====

# ASSAYED SYSTEM: human TAS1R2-K689Q/TAS1R3-WT (Homo sapiens, UniProt Q7RTX0+Q8TE23, K689Q)
# Construct: expressed in transfected cells; host or cells: HEK293T-Gα16gust44
# Sequence (Q8TE23 20-839 K689Q, one chain of several): as the sequence (Q8TE23 20-839) above, with K670Q counted along it
# EXPERIMENTAL PROTOCOL: Calcium mobilisation assay, TAS1R2 variant K689Q with TAS1R3-WT
# Format: cell-based
# CONDITION SET: "-": no activation
TEST READOUT: R1 = Variant EC50/WT EC50

INSERT INTO results (compound, test_readout, assay_result) VALUES
  ('COC(=O)[C@H](Cc1ccccc1)NC(=O)[C@H](CC(=O)O)NCCC(C)(C)C', 'R1 = Variant EC50/WT EC50', 4.3),
  ('OC[C@H]1O[C@H](O[C@]2(CCl)O[C@H](CCl)[C@@H](O)[C@@H]2O)[C@H](O)[C@@H](O)[C@H]1Cl', 'R1 = Variant EC50/WT EC50', 3.4);

P: C=C(C)[C@@H]1CC=C(/C=N/O)CC1
Q: CC1=CC(=O)NS(=O)(=O)O1
Identify the entry with the smaller R1 = Variant EC50/WT EC50: P or Q . Your choice should be expressed through its label. Q

====

# ASSAYED SYSTEM: human TAS1R2-P21L/TAS1R3-WT (Homo sapiens, UniProt Q7RTX0+Q8TE23, P21L)
# Construct: expressed in transfected cells; host or cells: HEK293T-Gα16gust44
# Sequence (Q8TE23 20-839 P21L): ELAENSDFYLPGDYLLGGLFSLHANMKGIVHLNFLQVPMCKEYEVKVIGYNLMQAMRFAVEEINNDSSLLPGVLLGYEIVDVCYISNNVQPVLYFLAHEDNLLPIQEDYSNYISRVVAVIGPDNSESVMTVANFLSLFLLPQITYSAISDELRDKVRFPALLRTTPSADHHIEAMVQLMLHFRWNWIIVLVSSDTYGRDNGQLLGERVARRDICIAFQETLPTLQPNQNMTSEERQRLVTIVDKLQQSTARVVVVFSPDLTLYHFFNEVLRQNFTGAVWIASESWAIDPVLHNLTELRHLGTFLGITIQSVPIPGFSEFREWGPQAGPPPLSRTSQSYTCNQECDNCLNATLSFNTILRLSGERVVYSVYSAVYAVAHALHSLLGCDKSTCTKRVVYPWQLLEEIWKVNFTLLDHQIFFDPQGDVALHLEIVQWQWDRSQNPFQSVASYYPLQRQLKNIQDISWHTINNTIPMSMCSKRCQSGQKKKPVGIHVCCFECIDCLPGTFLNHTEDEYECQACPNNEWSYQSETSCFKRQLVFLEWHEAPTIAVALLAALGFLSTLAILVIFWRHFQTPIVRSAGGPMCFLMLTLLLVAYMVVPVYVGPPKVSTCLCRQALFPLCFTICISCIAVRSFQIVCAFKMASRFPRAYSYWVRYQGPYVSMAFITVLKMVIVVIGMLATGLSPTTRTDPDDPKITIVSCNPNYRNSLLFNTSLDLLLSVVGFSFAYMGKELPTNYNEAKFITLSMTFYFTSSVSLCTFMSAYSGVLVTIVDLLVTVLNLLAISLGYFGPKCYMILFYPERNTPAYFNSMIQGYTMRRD
# Sequence (Q7RTX0 21-852): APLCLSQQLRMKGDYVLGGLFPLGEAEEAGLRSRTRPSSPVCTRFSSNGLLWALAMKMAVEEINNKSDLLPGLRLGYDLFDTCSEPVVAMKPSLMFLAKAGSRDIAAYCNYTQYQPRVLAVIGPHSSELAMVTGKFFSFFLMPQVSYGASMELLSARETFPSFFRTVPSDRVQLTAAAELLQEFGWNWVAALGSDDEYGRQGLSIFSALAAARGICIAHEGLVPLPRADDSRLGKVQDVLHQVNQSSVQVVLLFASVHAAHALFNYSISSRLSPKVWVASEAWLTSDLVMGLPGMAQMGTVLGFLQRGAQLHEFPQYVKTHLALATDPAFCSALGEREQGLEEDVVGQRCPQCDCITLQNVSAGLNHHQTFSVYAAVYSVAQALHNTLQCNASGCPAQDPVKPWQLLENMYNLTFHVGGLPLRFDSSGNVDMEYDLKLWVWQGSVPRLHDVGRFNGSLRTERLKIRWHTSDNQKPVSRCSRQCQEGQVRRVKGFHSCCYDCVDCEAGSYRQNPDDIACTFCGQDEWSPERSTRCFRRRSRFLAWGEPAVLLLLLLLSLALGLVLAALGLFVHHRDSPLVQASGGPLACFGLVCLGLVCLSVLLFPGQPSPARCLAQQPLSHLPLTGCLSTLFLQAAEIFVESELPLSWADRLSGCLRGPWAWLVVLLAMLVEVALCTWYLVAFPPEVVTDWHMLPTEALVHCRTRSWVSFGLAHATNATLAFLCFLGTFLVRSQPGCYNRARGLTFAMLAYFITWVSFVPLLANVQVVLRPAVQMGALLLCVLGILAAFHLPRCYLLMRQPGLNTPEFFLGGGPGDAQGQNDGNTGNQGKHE
# EXPERIMENTAL PROTOCOL: Calcium mobilisation assay, TAS1R2 variant P21L with TAS1R3-WT
# Type: cell-based
Recorded measurements of R1 = Variant EC50/WT EC50, one per entry
// keep it numeric: no unit symbol after the value

INSERT INTO results (compound, assay_result) VALUES
  ('C[C@H](CC[C@@H](O[C@@H]1O[C@H](CO[C@@H]2O[C@H](CO)[C@@H](O)[C@H](O)[C@H]2O)[C@@H](O)[C@H](O)[C@H]1O[C@@H]1O[C@H](CO)[C@@H](O)[C@H](O)[C@H]1O)C(C)(C)O)[C@H]1CC[C@@]2(C)[C@@H]3CC=C4[C@@H](CC[C@H](O[C@@H]5O[C@H](CO[C@@H]6O[C@H](CO)[C@@H](O)[C@H](O)[C@H]6O)[C@@H](O)[C@H](O)[C@H]5O)C4(C)C)[C@]3(C)[C@H](O)C[C@]12C [Mogroside V, mogroside V]', 1.2);

Shifting focus to the compound that follows.
Fill in the blank: the reported R1 = Variant EC50/WT EC50 of C=C(C)[C@@H]1CC=C(/C=N/O)CC1 is ____. 1.5
